Listed below: pIC50 values for each entry.
Test system: MOLM-13 cells
measurement_protocol: MOLM13 CTG - analysis of cell proliferation (Cell Titre Glo)
Type: cell-based
experimental_conditions: Homo sapiens, geometric mean, read-out: CTG MOLM13 cells IC50 GEOMEAN
pIC50: −log10 of the molar value.

Sample answers from the record:
| compound | target_or_system | outcome_measure | experimental_value |
| --- | --- | --- | --- |
| COC(C)(C)CNCc1ccc2nc(CNC(=O)c3cc(=O)n4ccccc4n3)cn2c1 [Compound 281] | MOLM-13 cells | pIC50 | ≤ 4.52 |
| CN(C)C(=O)c1cc(-c2cn(Cc3cn4cc(CNCC5CCC5)ccc4n3)nn2)c2cn[nH]c2c1 [Example 299] | MOLM-13 cells | pIC50 | ≤ 4.52 |

Consider the additional compound presented here.
**Query** Supply pIC50 measured with MOLM-13 cells for O=C(NCc1cn2cc(CCNCc3ccccc3)ccc2n1)c1cc(=O)n2ccccc2n1 [Compound 235] .
**Result** ≤ 4.52
